B1: TPR 5TU (parent)
chain: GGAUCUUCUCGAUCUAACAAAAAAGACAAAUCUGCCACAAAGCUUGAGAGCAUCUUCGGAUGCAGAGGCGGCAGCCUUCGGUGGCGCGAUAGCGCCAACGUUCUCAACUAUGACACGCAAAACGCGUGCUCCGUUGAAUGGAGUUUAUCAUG

Variants of: B1
RUN_DESCRIPTION: polymerase ribozyme fitness, log enrichment relative to wild type (log ratio); higher = more active; in vitro selection for triplet polymerase activity
This sample holds only a part of the variants without activity.
MEASUREMENT_TYPE: polymerase ribozyme fitness (log ratio)
Quick one: just the number, no unit, thanks!

Examples with their reported polymerase ribozyme fitness (log ratio) follow.
G59A C99U A115G    -1.83
G94C C129G    -3.39

Endpoint output: polymerase ribozyme fitness (log ratio) of C57G G94A G141C . Value?
-0.316

Endpoint output: polymerase ribozyme fitness (log ratio) of C5U A19G C57U G84U G117U A120U . Value?
-2.48

Endpoint output: polymerase ribozyme fitness (log ratio) of A41C A47C U56A C85U . Value?
-1.41

Endpoint output: polymerase ribozyme fitness (log ratio) of C8U U13C A22G C93U G126A . Value?
-1.08

Endpoint output: polymerase ribozyme fitness (log ratio) of A20C A98U . Value?
-1.29

Endpoint output: polymerase ribozyme fitness (log ratio) of A28U A47C . Value?
-3.9

Endpoint output: polymerase ribozyme fitness (log ratio) of A26U U44A G58A C87U A107G C123G G141C . Value?
-3.93

Endpoint output: polymerase ribozyme fitness (log ratio) of U7G G83A A91U C131U . Value?
-3.4

Endpoint output: polymerase ribozyme fitness (log ratio) of A12U A110G . Value?
-3.35
